target: HLA-A*26:01; experiment: IEDB peptide-MHC binding, purified MHC/direct/fluorescence; filed as Kd, often an IC50 or EC50 that approximates it; bounds were set here for any values at or beyond the usual limits of such assays; conditions: source organism: Influenza A virus (A/goose/Hong Kong/8/1976(H1N1))
pKd: −log10 of the molar value.

>  <Query Sequence>
LSPGMMMGM

>  <pKd>
≤ 4.70

$$$$

* * *

target: HLA-A*29:02; assay: IEDB peptide-MHC binding, purified MHC/direct/fluorescence; filed as Kd, often an IC50 or EC50 that approximates it; bounds were set here for any values at or beyond the usual limits of such assays; conditions: source organism: Vibrio vulnificus CMCP6
Recorded Endpoint: Kd

>  <Query Sequence>
SVMSTFFWE

>  <System>
HLA-A*29:02

>  <Recorded Endpoint>
Kd

>  <Reported>
≥ 20 µM

$$$$

* * *

biological target: HLA-B*44:02; experiment: IEDB peptide-MHC binding, purified MHC/direct/fluorescence; filed as Kd, often an IC50 or EC50 that approximates it; bounds were set here for any values at or beyond the usual limits of such assays; settings: source organism: Rickettsia conorii

>  <Query Sequence>
RTGDIGCFK

>  <Kd>
≥ 20 µM

$$$$

* * *

molecular target: HLA-A*24:03; assay: IEDB peptide-MHC binding, purified MHC/direct/fluorescence; filed as Kd, often an IC50 or EC50 that approximates it; bounds were set here for any values at or beyond the usual limits of such assays; conditions: source organism: Giardia lamblia ATCC 50803
pKd: −log10 of the molar value.

>  <Query Sequence>
PPQATAKYL

>  <pKd>
5.02

$$$$

* * *

target: HLA-B*15:01; experiment: IEDB peptide-MHC binding, purified MHC/direct/fluorescence; filed as Kd, often an IC50 or EC50 that approximates it; bounds were set here for any values at or beyond the usual limits of such assays; conditions: source organism: Reston ebolavirus - Reston

>  <Query Sequence>
QLSLRMLSL

>  <Kd>
≥ 20 µM

$$$$

* * *

target: HLA-A*02:16; assay: IEDB peptide-MHC binding, purified MHC/direct/fluorescence; filed as Kd, often an IC50 or EC50 that approximates it; bounds were set here for any values at or beyond the usual limits of such assays; details: source organism: Mycobacterium tuberculosis str. Haarlem

>  <Query Sequence>
WASGVPAAT

>  <System>
HLA-A*02:16

>  <Kd>
≥ 20 µM

$$$$

* * *

molecular target: HLA-B*51:01; assay: IEDB peptide-MHC binding, purified MHC/competitive/fluorescence; filed as Kd, often an IC50 or EC50 that approximates it; bounds were set here for any values at or beyond the usual limits of such assays; details: source organism: Vibrio vulnificus YJ016

>  <Query Sequence>
SVMSTFFWE

>  <Kd>
≥ 20 µM

$$$$
>  <Query Sequence>
DFISMYFPW

>  <Kd>
≥ 20 µM

$$$$

* * *

biological target: HLA-B*15:01; assay: IEDB peptide-MHC binding, purified MHC/competitive/fluorescence; bounds were set here for any values at or beyond the usual limits of such assays; conditions: source organism: Zaire ebolavirus
Just a reminder that ties go to not met: only IC50 strictly below 10 µM counts as met.

>  <Query Sequence>
AAVSHLTTL

>  <System>
HLA-B*15:01

>  <Answer Label>
not met

$$$$
>  <Query Sequence>
RLAKLTEAI

>  <System>
HLA-B*15:01

>  <Answer Label>
not met

$$$$
>  <Query Sequence>
MMKDEPVVF

>  <System>
HLA-B*15:01

>  <Answer Label>
met

$$$$
>  <Query Sequence>
HQKKNEISF

>  <System>
HLA-B*15:01

>  <Answer Label>
met

$$$$
>  <Query Sequence>
ILMNFHQKK

>  <System>
HLA-B*15:01

>  <Answer Label>
not met

$$$$
>  <Query Sequence>
LHHAYQGDY

>  <System>
HLA-B*15:01

>  <Answer Label>
not met

$$$$
>  <Query Sequence>
VVNYEAGEW

>  <System>
HLA-B*15:01

>  <Answer Label>
not met

$$$$
>  <Query Sequence>
FQQTNAMVT

>  <System>
HLA-B*15:01

>  <Answer Label>
not met

$$$$
>  <Query Sequence>
YQGDYKLFL

>  <System>
HLA-B*15:01

>  <Answer Label>
not met

$$$$

Reference for the values: the Immune Epitope Database (IEDB)
